test system: K-562 leukemia; test: NCI-60 one-dose screen, 48 h; conditions: 10 µM unless noted
Compounds without any hit were thinned out: in the full panel of roughly 83,000, 20% have a hit. Activity calls are given as the source filed them. Rule for the calls: active = growth percent below 10; inactive = the rest.
Outcome codes: active, inactive

| Molecule | Label Value |
| --- | --- |
| CN1CCN(Cc2ccc(NC(=O)c3cncc(C#Cc4cncn5ccnc45)c3)cc2C(F)(F)F)CC1 | active |
| CC(=O)NCC1c2c(n(C)c3c(Cl)c(Cl)ccc23)C(=O)NC1(C)C (centres undefined) | inactive |
| OCCNc1nccc(N2CCN(c3ccnc4cc(Cl)ccc34)CC2)n1 | inactive |
| CCCCCCCCCCCCC[N+](C)(C)Cc1ccccc1 | active |
| Cc1ncc(C(=O)Nc2ccc(CN3CCN(C)CC3)c(C(F)(F)F)c2)cc1C#Cc1cnc2cccnn12 | active |
| COc1ccc(NC2=C(Sc3nc(C)cc(C)n3)C(=O)N(Cc3ccccc3)C2=O)cc1Cl | inactive |
| N#CCCN=Nc1c(O)[nH]c2ccc([N+](=O)[O-])cc12 | inactive |
| COc1cc2c(cc1-c1c(C)noc1C)ncc1nc(C3CCOCC3)n([C@H](C)COC(F)F)c12 | inactive |
| CN(C)S(=O)(=O)c1ccc(S(=O)(=O)Nc2cccc(Cl)c2N2CCCCC2)cc1 | inactive |
| Cc1nn(-c2cc(=O)[nH]c3ccccc23)c(N)c1C#N | inactive |
| C[n+]1ccccc1/C=C/c1ccc2cccc(O)c2n1 | inactive |
| Cn1cc(-c2nonc2-c2cn(C)c3ccc(F)cc23)c2cc(F)ccc21 | inactive |
| N#C/C(=C\c1ccc(-c2cc(C(F)(F)F)ccc2Cl)o1)c1nc(-c2ccco2)cs1 | inactive |
| COc1ccc(-c2nc3ccc(-c4nc5ccc(N6CCN(c7ccccc7)CC6)cc5[nH]4)cc3[nH]2)cc1OC | active |

----------
Attribute: growth
tested on: KM12 colon; assay: NCI-60 one-dose screen, 48 h (100 = growth as untreated, 0 = no growth, -100 = all killed); settings: 10 µM unless noted
Compounds without any hit were thinned out: in the full panel of roughly 83,000, 20% have a hit.

| Molecule | growth [%] |
| --- | --- |
| COc1ccc(CN2c3ccccc3Oc3ccccc32)cc1F | 40.7 |
| COc1cc2nc(N3CCCC3)nc(NCc3ccccc3)c2cc1OC | 96.3 |
| CSc1nc(NCCO)c(C#N)c(-c2cccc([N+](=O)[O-])c2)n1 | 98.3 |
| CC(C)CSc1nc(N)nc2c1ncn2C1OC(CO)C(O)C1O (stereo not given) | 96.7 |
| Oc1ccccc1-c1nnc(CNc2ccc(Cl)cc2)o1 | 18.9 |
| Cn1ccnc1C(=O)/C=C/c1ccccc1 | -20.6 |
| Clc1ccc2c(NCCCNc3nc(-n4ccnc4)nc4ccccc34)ccnc2c1 | 88.5 |
| COc1cc2nc(N3CCCC3)nc(NCCc3ccccc3)c2cc1OC | 96.3 |
| CCc1c(Nc2ccccc2C)nc(N)[nH]c1=O | 104 |
| CCCCC[C@H]1C/C=C2/C(=O)C=C[C@@H]2C/C=C\CCCC(=O)O1 | -83.6 |

----------
tested on: COLO 205 colon; assay: NCI-60 one-dose screen, 48 h; conditions: 10 µM unless noted
This is part of a sample that, as a whole, favours compounds with a hit. Of some 83,000 tested, about 20% had one in any assay. Activity calls are given as the source filed them. Rule for the calls: active = growth percent below 10; inactive = the rest.
Outcome codes: true = active, false = inactive

| Compound | Label Value |
| --- | --- |
| NC(=O)c1cc(Br)ccc1NC(=O)/C=C/c1ccccc1 | true |
| CC1=C(O)C(=O)C(C(C#N)(C#N)C(C#N)C#N)C1 (configuration not stated) | false |
| COc1cccc(-c2nn(C(C)(C)C)cc2-c2ccnc(NCCCNS(=O)(=O)c3cccc4ccccc34)c2)c1 | false |
| CCN(CC)c1ccc(/C=N\NC(=O)/C=C/C=C/c2ccc3c(c2)OCO3)c(O)c1 | false |
| CCOC(=O)c1sc(Nc2ccc(Cl)cc2)nc1C | false |
| CCCCCCN(CCCCCC)C(=N)c1ccnc2ccccc12 | true |
| C=CC(=O)Nc1cccc(-c2nc(SC)nc(NCCN3CCOCC3)c2C#N)c1 | false |
| C=C(C)C(=O)Nc1ccc(NC(C)C)cc1 | false |
| NC(=O)c1cc(I)ccc1NC(=O)/C=C/c1ccccc1Cl | true |
| CN(CCCCCl)P(=O)(OCc1ccc([N+](=O)[O-])o1)C(F)(F)c1ccc(CC(=O)NC[C@@H](O)/C=C\[C@@H](O)[C@H](CO)Cc2ccccc2)cc1 (some centres not stated) | false |
| COc1ccc(C(=O)COc2ccc(/C=C3\COc4ccc(OC)cc4C3=O)cc2)cc1 | false |
| CCOc1cc2ncc(C#N)c(Nc3ccc(OCc4cccc(F)c4)c(Cl)c3)c2cc1NC(=O)CC1CCSS1 (configuration not stated) | false |
| O=[N+]([O-])c1ccc2c(c1)Cc1cc(F)ccc1-2 | false |
| COc1cc(/C=C/C(=O)Nc2cccnc2Nc2ccc(F)cc2)cc(OC)c1OC | false |
| CC(C)(C)c1cc(/C=N\NC(=O)/C=C/C=C/c2ccc3c(c2)OCO3)c(O)c(C(C)(C)C)c1 | false |
| Cc1ccc2c(C(C[N+](=O)[O-])c3ccco3)c(-c3ccccc3)[nH]c2c1 (configuration not stated) | false |
| CC(C)C1=C[C@@]23CC[C@@H]4[C@](C)(CCC[C@@]4(C)C(=O)N4CCCNCC4)[C@H]2C[C@@H]1[C@H]1C(=O)CCC(=O)[C@H]13 | false |

----------
system: SK-OV-3 ovarian; assay: NCI-60 one-dose screen, 48 h (100 = growth as untreated, 0 = no growth, -100 = all killed); conditions: 10 µM unless noted
The panel holds about 83,000 compounds, 20% with a hit somewhere; the sample as a whole holds those more often.
Could you please mark criterion met for values of growth below 40% and criterion not met for values at or above it?

| Compound | Target Under Test | Label Value |
| --- | --- | --- |
| CC(O)CN1CC(O)=C(c2nc3ccccc3s2)C1=N (stereo unspecified) | SK-OV-3 ovarian | criterion not met |
| CC(=O)O[C@H]1CC[C@]2(C)[C@H]3CC=C4[C@@H]5CC(C)(C)CC[C@]5(C(=O)NCCNCCNCCN)CC[C@@]4(C)[C@]3(C)CC[C@H]2C1(C)C | SK-OV-3 ovarian | criterion not met |
| Cc1ccc2c(C(C[N+](=O)[O-])c3ccco3)c(-c3ccccc3)[nH]c2c1 (stereo unspecified) | SK-OV-3 ovarian | criterion met |
| CC1=C[C@H]2c3c(c(O)c(O)c4oc5cc(O)ccc5c(=O)c34)[C@H](c3cc(O)c(O)c4oc5cc(O)ccc5c(=O)c34)[C@H]2C(C)(C)C1 | SK-OV-3 ovarian | criterion not met |
| CCN=C1C=CC(=C(c2ccc(N)cc2)c2ccc(N(CC)CC)c(C)c2)C=C1 | SK-OV-3 ovarian | criterion met |
| COc1ccc(CCNc2nc3c(c(=O)n(Cc4ccc(Br)cc4)c(=O)n3C)n2C)cc1OC | SK-OV-3 ovarian | criterion not met |
| Cc1cc(Nc2ccc(C)c(Cl)c2)n2nc(C(F)(F)F)nc2n1 | SK-OV-3 ovarian | criterion met |
| Fc1ccc(CNc2cccc3[nH]c(C(F)(F)F)nc23)cc1 | SK-OV-3 ovarian | criterion not met |
| NC(=O)c1cc(Cl)ccc1NC(=O)/C=C/c1ccccc1 | SK-OV-3 ovarian | criterion met |
| CN1CCN(c2ccc(Nc3c4ccccc4nc4ccccc34)cc2)CC1 | SK-OV-3 ovarian | criterion not met |
| OC(c1cc2cc(Cl)c(Cl)cc2c2cc(C(F)(F)F)ccc12)C1CCCCN1 (stereo unspecified) | SK-OV-3 ovarian | criterion met |
| O=C1/C(=C/c2ccc(Cl)cc2)SC(=S)N1CCc1ccc(O)cc1 | SK-OV-3 ovarian | criterion not met |
| CCN1CCC2(CC1)NC(=O)c1c(c3ccc(Cl)c(Cl)c3n1C)C2C#N (stereo unspecified) | SK-OV-3 ovarian | criterion not met |
| O=[N+]([O-])c1ccc(Nc2nc(NCCN3CCOCC3)ncc2[N+](=O)[O-])cc1 | SK-OV-3 ovarian | criterion not met |
| CCN(CC)S(=O)(=O)c1ccc(OC)c(NC(=O)c2[nH]c(C)c3c2CCCCC3=O)c1 | SK-OV-3 ovarian | criterion met |

----------
Attribute: growth
Tested on: UO-31 renal
Assay: NCI-60 one-dose screen, 48 h (100 = growth as untreated, 0 = no growth, -100 = all killed)
Conditions: 10 µM unless noted
Method: Growth inhibition of the UO-31 human tumor cell line is measured as a screen for anti-cancer activity. Cells are grown in 96 well plates and exposed to the test compound for 48 hours. Compounds are tested at a single concentration, which is 10^-5 M for most compounds. The reported endpoint is percent growth (GI% or GIPRCNT), where numbers from 0 - 100% represent growth inhibition, and numbers from -100% - 0 represent cell death. For example, a value of 40 represents 60% growth inhibition. […]
The panel holds about 83,000 compounds, 20% with a hit somewhere; the sample as a whole holds those more often. The source made the active and inactive calls. The calls were made as follows: active = growth percent below 10; inactive = the rest.

| Smiles Input | growth |
| --- | --- |
| COc1ccc(CCNc2nc3c(c(=O)n(Cc4ccc(Br)cc4)c(=O)n3C)n2C)cc1OC | 70.6% (inactive) |
| Cc1ccc2c(c1)C(=O)/C(=C/c1cccc(OCC(=O)c3ccc(Cl)cc3)c1)CS2 | 71.2% (inactive) |
| CC1=NN(c2nc(-c3ccc(Cl)cc3)c(C#N)c(N3CCOCC3)n2)C(=O)C1 | 71.9% (inactive) |
